Tested on: SLK
COND: concentration: 1 μM, replicates: in singlicate; n = 1;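 further: KINOMEscan kinase panel screen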
QUANTITY_KIND: %Inh (%)

COMPOUND: O=C(Nc1ccccc1F)NC1CCN(c2ccnc(Nc3ccc(F)cc3)n2)C1 (centres unmarked) [GSK1379722]
TESTED_TARGET: SLK
QUANTITY_UNIT: %
RESULT_VALUE: 5
//
COMPOUND: O=C(Nc1n[nH]c2nc(-c3ccco3)c(Br)cc12)c1ccc(CN2CCCC2)cc1.O=C(O)[C@H](O)[C@@H](O)C(=O)O [SB-742352]
TESTED_TARGET: SLK
QUANTITY_UNIT: %
RESULT_VALUE: 25
//
COMPOUND: Cl.Cl.c1ccc(-c2cc3ccncc3cc2OC2CCNCC2)cc1 [GSK1122999]
TESTED_TARGET: SLK
QUANTITY_UNIT: %
RESULT_VALUE: 40
//
COMPOUND: Oc1ccc2ncnc(Nc3ccc(OCc4ccccc4)cc3)c2c1 [GI262866]
TESTED_TARGET: SLK
QUANTITY_UNIT: %
RESULT_VALUE: 1
//
COMPOUND: CCn1c(-c2ccncc2)nc2cnccc21 [SB-735216]
TESTED_TARGET: SLK
QUANTITY_UNIT: %
RESULT_VALUE: 8

* * *

System: SGK3
COND: concentration: 1 μM, replicates: in singlicate; n = 1
The label true (1) is reserved for %Inh strictly under 3%; false (0) covers values equal to or above it.

MOLECULE: COc1ccc(-c2oc3ncnc(N)c3c2-c2ccc(OC)cc2)cc1 [SB-589132]
LABEL_CLASS: true (1)
//
MOLECULE: CS(=O)(=O)CCNCc1nc(-c2ccc3ncnc(Nc4ccc(OCc5cccc(F)c5)c(Cl)c4)c3c2)cs1.Cl [GW583340]
LABEL_CLASS: true (1)
//
MOLECULE: CCc1nc(-c2cccc(N(C)S(=O)(=O)c3ccccc3)c2)c(-c2ccnc(Nc3ccc(N4CCN(C(C)=O)CC4)nc3)n2)s1 [GSK1645895]
LABEL_CLASS: false (0)
//
MOLECULE: CCC(CC)(CC)n1cnc2c(N)ncnc21 [SKF-97620]
LABEL_CLASS: false (0)
//
MOLECULE: Cc1ccc(O)cc1Nc1cc(C(F)(F)F)nc2ccc(-c3ccncc3)cc12 [GW630823]
LABEL_CLASS: true (1)
//
MOLECULE: O=C(CCO)NCCn1ccc2ncnc(Nc3ccc(Oc4cccc(C(F)(F)F)c4)c(Cl)c3)c21
LABEL_CLASS: true (1)
//
MOLECULE: Clc1cc(Nc2ncnc3cc[nH]c23)ccc1OCc1ccccn1
LABEL_CLASS: false (0)

* * *

Reported values of %Inh for individual entries
Tested on: NIK
Construct: gene MAP3K14
COND: concentration: 1 μM, replicates: in singlicate; n = 1

COMPOUND: O=C(c1ccc(-c2cc(-c3c[nH]nc3-c3ccccn3)ccn2)cc1)N1CCCC1
%Inh / %: 0
--
COMPOUND: CC(C)(C)OC(=O)NC1CCCN(c2cc(-c3ccc4c(N)n[nH]c4c3)nc(N)n2)C1 (stereo not shown)
%Inh / %: 0
--
COMPOUND: Cl.c1ccc(Cn2ncc3cc(Nc4ncnc5ccccc45)ccc32)cc1
%Inh / %: 0
--
COMPOUND: O=C(CCO)NCCn1ccc2ncnc(Nc3ccc(Oc4cccc(C(F)(F)F)c4)c(Cl)c3)c21
%Inh / %: 6
--
COMPOUND: O=C(Nc1ccccc1F)NC1CCN(c2ccnc(Nc3ccc(F)cc3)n2)C1 (stereo not shown)
%Inh / %: 14
--
COMPOUND: Fc1cccc(COc2ccc(Nc3ncnc4cc[nH]c34)cc2Cl)c1
%Inh / %: 9
--
COMPOUND: COC(=O)c1cccc(NC(=O)NCCNc2ccnc(Nc3ccc(F)cc3)n2)c1
%Inh / %: 9
--
COMPOUND: CS(=O)(=O)CCNCc1ccc(-c2ccc3ncnc(Nc4ccc(OCc5ccccc5)c(Cl)c4)c3c2)o1.Cl
%Inh / %: 100
--
COMPOUND: N#Cc1ccc(Oc2ccc(Nc3ncnc4cc[nH]c34)cc2Cl)cc1
%Inh / %: 0
--
COMPOUND: CN1CCC(n2cnc(-c3ccc(F)cc3)c2-c2ccnc(NC3CCNCC3)n2)CC1
%Inh / %: 0
--
COMPOUND: O=c1cc(N2CCOCC2)nc2n(Cc3cccc(Cl)c3)ccn12
%Inh / %: 13
--
COMPOUND: C[C@H]1CC[C@@H](C(=O)Nc2ccccc2)CN1c1cc(-c2ccc3c(N)n[nH]c3c2)nc(N)n1
%Inh / %: 0
--
COMPOUND: Cl.Cn1ccc(-c2cccc(Nc3ccnc4cc(-c5nccs5)ccc34)c2)n1
%Inh / %: 51
--
COMPOUND: Nc1nc(-c2ccc3c(N)n[nH]c3c2)cc(N2CCCCC2)n1
%Inh / %: 0
--
COMPOUND: Nc1n[nH]c2nnc(-c3ccccc3)cc12
%Inh / %: 0
--
COMPOUND: CC(=O)Nc1n[nH]c2ncc(-c3ccccc3)cc12
%Inh / %: 3

* * *

Tested on: SRPK3
COND: concentration: 1 μM, replicates: in singlicate; n = 1
QUANTITY_KIND: %Inh

COMPOUND: CCCc1ccc(S(=O)(=O)NC2CCN(c3ccnc(Nc4ccc(OC)cc4)n3)C2)cc1 (stereo not drawn)
RESULT_VALUE: 0%

COMPOUND: CNc1nccc(-c2c(-c3ccc(F)cc3)ncn2CCCN2CCOCC2)n1
RESULT_VALUE: 0%

COMPOUND: Clc1ccc(-c2cc(-c3c[nH]nc3-c3ccccn3)ccn2)cc1
RESULT_VALUE: 0%

COMPOUND: Cn1ccc2ncnc(Oc3ccc(NC(=O)Nc4cccnc4)c(Cl)c3)c21
RESULT_VALUE: 0%

COMPOUND: C[C@H]1CC[C@@H](C(=O)Nc2ccccc2)CN1c1cc(-c2ccc3c(N)n[nH]c3c2)nc(N)n1
RESULT_VALUE: 16%

COMPOUND: CCn1c(-c2ccncc2)nc2cnccc21
RESULT_VALUE: 50%

COMPOUND: CNc1nccc(-c2c(-c3ccc(F)cc3)ncn2C2CCN(C)CC2)n1
RESULT_VALUE: 0%

COMPOUND: Cl.c1ccc(Cn2ccc3cc(Nc4ncnc5ccccc45)ccc32)cc1
RESULT_VALUE: 0%

COMPOUND: Oc1ccc2ncnc(Nc3ccc(OCc4ccccc4)cc3)c2c1
RESULT_VALUE: 15%

* * *

Tested on: DYRK1B
COND: concentration: 1 μM, replicates: in singlicate; n = 1

COMPOUND: O=C(Nc1n[nH]c2nc(-c3ccco3)c(Br)cc12)c1ccc(CN2CCCC2)cc1.O=C(O)[C@H](O)[C@@H](O)C(=O)O [SB-742352]
QUANTITY_UNIT: %
%Inh: 0
//
COMPOUND: c1ccc(-c2ccc3c(-c4ccnc(Nc5ccc6c(c5)OCCO6)n4)cnn3n2)cc1 [GW818941]
QUANTITY_UNIT: %
%Inh: 16
//
COMPOUND: Fc1ccc(Nc2nccc(-c3c(-c4ccc(Cl)cc4)nn4ncccc34)n2)cc1F [GW829058]
QUANTITY_UNIT: %
%Inh: 11
//
COMPOUND: Cl.Fc1ccccc1COc1ccc(Nc2ncnc3ccc(-c4nnc(C(F)(F)F)o4)cc23)cc1Cl [GW424170]
QUANTITY_UNIT: %
%Inh: 0
//
COMPOUND: N#Cc1ccc(Oc2ccc(Nc3ncnc4cc[nH]c34)cc2Cl)cc1
QUANTITY_UNIT: %
%Inh: 15
//
COMPOUND: Cl.c1ccc(Cn2ccc3cc(Nc4ncnc5ccccc45)ccc32)cc1 [GW275568]
QUANTITY_UNIT: %
%Inh: 0
//
COMPOUND: Clc1ccc(-c2cc(-c3c[nH]nc3-c3ccccn3)ccn2)cc1 [GW681251]
QUANTITY_UNIT: %
%Inh: 0
//
COMPOUND: Nc1n[nH]c2nnc(-c3ccccc3)cc12 [SB-517389]
QUANTITY_UNIT: %
%Inh: 92.4
//
COMPOUND: CC(C)(C)OC(=O)NC1CCCN(c2cc(-c3ccc4c(N)n[nH]c4c3)nc(N)n2)C1 (stereo not drawn) [GSK2286096]
QUANTITY_UNIT: %
%Inh: 100

* * *

System: PRKCQ
COND: concentration: 1 μM, replicates: in singlicate; n = 1
QUANTITY_KIND: %Inh (%)

MOLECULE: Fc1cccc(COc2ccc(Nc3ncnc4nn5ccccc5c34)cc2Cl)c1 [GW689066]
RESULT_VALUE: 7
--
MOLECULE: Clc1ccc(-c2cc(-c3c[nH]nc3-c3ccccn3)ccn2)cc1 [GW681251]
RESULT_VALUE: 0
--
MOLECULE: Cn1cc(-c2ccc3c(c2)CCN3C(=O)Cc2cccc(C(F)(F)F)c2)c2c(N)ncnc21 [GSK2606414]
RESULT_VALUE: 0
--
MOLECULE: CCC(CC)(CC)n1cnc2c(N)ncnc21 [SKF-97620]
RESULT_VALUE: 0
--
MOLECULE: Clc1cc(Nc2ncnc3cc[nH]c23)ccc1OCc1ccccn1
RESULT_VALUE: 34
--
MOLECULE: CCn1c(-c2ccncc2)nc2cnccc21 [SB-735216]
RESULT_VALUE: 8
--
MOLECULE: Clc1cccc(-c2nc(Nc3ccncc3)c3ccccc3n2)c1 [GW873004]
RESULT_VALUE: 0
--
MOLECULE: Fc1cccc(COc2ccc(Nc3ncnc4sc(-c5ccc[nH]5)cc34)cc2Cl)c1 [GW707818]
RESULT_VALUE: 0
--
MOLECULE: Nc1nc(-c2ccccn2)c(-c2ccnc3ccccc23)s1 [GW548057]
RESULT_VALUE: 3
--
MOLECULE: c1ccc(-c2ccc3c(-c4ccnc(Nc5ccc6c(c5)OCCO6)n4)cnn3n2)cc1 [GW818941]
RESULT_VALUE: 37
--
MOLECULE: O=C(Nc1ccccc1F)NC1CCN(c2ccnc(Nc3ccc(F)cc3)n2)C1 (stereo not shown) [GSK1379722]
RESULT_VALUE: 23
--
MOLECULE: COC(=O)c1cccc(NC(=O)NCCNc2ccnc(Nc3ccc(F)cc3)n2)c1 [GSK1379883]
RESULT_VALUE: 0
--
MOLECULE: CCc1nc(-c2cccc(N(C)S(=O)(=O)c3ccccc3)c2)c(-c2ccnc(Nc3ccc(N4CCN(C(C)=O)CC4)nc3)n2)s1 [GSK1645895]
RESULT_VALUE: 15
--
MOLECULE: CNc1nccc(-c2c(-c3ccc(F)cc3)ncn2C2CCN(C)CC2)n1 [SB-222903]
RESULT_VALUE: 0
--
MOLECULE: Nc1nc(-c2ccc3c(N)n[nH]c3c2)cc(N2CCC[C@@H](C(=O)Nc3ccccc3)C2)n1.O=C(O)C(F)(F)F.O=C(O)C(F)(F)F [GSK2288359]
RESULT_VALUE: 7
--
MOLECULE: Nc1nc(-c2ccc3c(N)n[nH]c3c2)cc(N2CCCCC2)n1 [GSK2228768]
RESULT_VALUE: 17
--
MOLECULE: FC(F)(F)c1ccc(-c2nn3ncccc3c2-c2ccnc(Nc3cccc(C(F)(F)F)c3)n2)cc1 [GW828205]
RESULT_VALUE: 0
--
MOLECULE: O=c1cc(N2CCOCC2)nc2n(Cc3cccc(Cl)c3)ccn12 [GSK2296823]
RESULT_VALUE: 0
--
MOLECULE: CN1CCC(n2cnc(-c3ccc(F)cc3)c2-c2ccnc(NC3CCNCC3)n2)CC1 [SB-229482]
RESULT_VALUE: 13
--
MOLECULE: Cc1cc(N2CCC(NS(=O)(=O)c3ccc(F)cc3)CC2)nc(Nc2cccc(C#N)c2)n1.O=C(O)C(F)(F)F [GSK1653537]
RESULT_VALUE: 19
--
MOLECULE: COc1cc2ncnc(Nc3ccc(OCc4ccccc4Br)c(Cl)c3)c2cc1OC.Cl [GI261590]
RESULT_VALUE: 100
--
MOLECULE: Nc1nc(-c2cccnc2)c(-c2ccnc3ccccc23)s1 [GW684083]
RESULT_VALUE: 4
--
MOLECULE: CC(C)(C)OC(=O)NC1CCCN(c2cc(-c3ccc4c(N)n[nH]c4c3)nc(N)n2)C1 (stereo not shown) [GSK2286096]
RESULT_VALUE: 0
--
MOLECULE: Cl.Fc1ccccc1COc1ccc(Nc2ncnc3ccc(-c4nnc(C(F)(F)F)o4)cc23)cc1Cl [GW424170]
RESULT_VALUE: 0
--
MOLECULE: FC(F)(F)c1cc(Nc2nccc(-c3c(-c4ccc(Cl)cc4)nn4ncccc34)n2)ccc1Cl [GW829351]
RESULT_VALUE: 3
--
MOLECULE: C[C@@H]1CCN(C(=O)CO)C[C@@H]1N(C)c1ncnc2[nH]ccc12
RESULT_VALUE: 0
--
MOLECULE: CS(=O)(=O)CCNCc1nc(-c2ccc3ncnc(Nc4ccc(OCc5cccc(F)c5)c(Cl)c4)c3c2)cs1.Cl [GW583340]
RESULT_VALUE: 0
--
MOLECULE: NC(=O)c1sc(-n2cnc3ccccc32)cc1OCc1ccccc1F [GSK1024306]
RESULT_VALUE: 0
